- Target or system: PI3Kβ (Homo sapiens)
- Sequence (P42338 whole entry): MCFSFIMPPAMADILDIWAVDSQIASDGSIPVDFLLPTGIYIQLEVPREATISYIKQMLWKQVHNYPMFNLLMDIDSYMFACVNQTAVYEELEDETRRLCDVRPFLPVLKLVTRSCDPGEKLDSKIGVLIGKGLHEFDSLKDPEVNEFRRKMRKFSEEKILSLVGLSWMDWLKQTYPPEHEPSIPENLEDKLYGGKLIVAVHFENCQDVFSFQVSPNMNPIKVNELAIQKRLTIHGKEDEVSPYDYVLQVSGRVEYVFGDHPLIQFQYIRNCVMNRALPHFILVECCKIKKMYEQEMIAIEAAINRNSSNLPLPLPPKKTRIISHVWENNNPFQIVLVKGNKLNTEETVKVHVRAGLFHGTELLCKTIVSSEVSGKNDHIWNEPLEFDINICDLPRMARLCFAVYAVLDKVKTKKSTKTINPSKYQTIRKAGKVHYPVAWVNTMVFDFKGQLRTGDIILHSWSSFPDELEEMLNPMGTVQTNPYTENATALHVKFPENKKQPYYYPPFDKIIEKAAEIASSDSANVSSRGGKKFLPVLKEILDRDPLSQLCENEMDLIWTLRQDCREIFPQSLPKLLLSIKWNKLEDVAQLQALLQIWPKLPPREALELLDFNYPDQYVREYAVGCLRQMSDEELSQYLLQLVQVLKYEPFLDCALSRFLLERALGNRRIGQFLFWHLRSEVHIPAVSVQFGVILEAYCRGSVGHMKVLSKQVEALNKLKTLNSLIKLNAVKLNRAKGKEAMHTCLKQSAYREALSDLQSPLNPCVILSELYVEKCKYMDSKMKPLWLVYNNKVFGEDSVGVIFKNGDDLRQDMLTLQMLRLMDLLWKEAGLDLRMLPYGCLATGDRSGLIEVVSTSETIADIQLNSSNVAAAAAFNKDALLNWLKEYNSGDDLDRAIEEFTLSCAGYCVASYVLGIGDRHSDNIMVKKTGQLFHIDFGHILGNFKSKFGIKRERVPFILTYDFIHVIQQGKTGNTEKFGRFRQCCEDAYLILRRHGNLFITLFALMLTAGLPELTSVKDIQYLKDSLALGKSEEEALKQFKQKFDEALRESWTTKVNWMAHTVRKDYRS
- Sequence (P27986 whole entry partner): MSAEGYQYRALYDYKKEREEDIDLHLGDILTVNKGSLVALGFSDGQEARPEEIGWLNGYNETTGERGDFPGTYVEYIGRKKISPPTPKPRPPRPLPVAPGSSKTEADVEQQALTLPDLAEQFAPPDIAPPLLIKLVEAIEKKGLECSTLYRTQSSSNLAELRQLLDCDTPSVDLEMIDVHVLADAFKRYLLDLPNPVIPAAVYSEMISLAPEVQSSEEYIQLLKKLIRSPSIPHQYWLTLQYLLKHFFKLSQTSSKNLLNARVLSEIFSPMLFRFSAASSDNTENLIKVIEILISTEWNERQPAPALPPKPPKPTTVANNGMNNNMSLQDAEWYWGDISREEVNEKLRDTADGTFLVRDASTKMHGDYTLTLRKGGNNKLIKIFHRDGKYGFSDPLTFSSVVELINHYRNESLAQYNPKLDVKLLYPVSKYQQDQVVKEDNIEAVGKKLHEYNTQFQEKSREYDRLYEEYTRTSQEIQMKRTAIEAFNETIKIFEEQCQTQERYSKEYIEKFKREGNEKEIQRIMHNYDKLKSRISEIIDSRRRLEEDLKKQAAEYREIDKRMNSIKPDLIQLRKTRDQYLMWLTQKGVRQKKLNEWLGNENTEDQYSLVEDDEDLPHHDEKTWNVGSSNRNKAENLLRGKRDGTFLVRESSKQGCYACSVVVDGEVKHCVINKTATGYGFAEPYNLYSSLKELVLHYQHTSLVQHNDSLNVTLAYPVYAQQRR
pIC50: −log10 of the molar value.
Quantity kind: pIC50

Consider the worked cases shown below.
{"columns": ["Molecule", "Target or system", "Val"],
 "data": [
  ["CCN(CC)CCn1cnc2ccc(-c3cnc(OC)c(NS(=O)(=O)c4ccc(F)cc4F)c3)cc2c1=O [R012, reference compound]", "PI3Kβ (Homo sapiens)", 7.17],
  ["CNC(=O)C(C)Cn1cnc2ccc(-c3cnc(OC)c(NS(=O)(=O)c4c(Cl)cccc4Cl)c3)cc2c1=O (single isomer, unassigned)", "PI3Kβ (Homo sapiens)", 6.92],
  ["Cc1nc(C)c(S(=O)(=O)Nc2cc(-c3ccc4ncn(CCCC(=O)NC(C)C)c(=O)c4c3)cnc2C)s1", "PI3Kβ (Homo sapiens)", 6.55]
]}

[P] CCC(Cn1cnc2ccc(-c3cnc(OC)c(NS(=O)(=O)c4ccc(F)cc4Cl)c3)cc2c1=O)C(=O)NC (single isomer, unassigned)
[Q] Cc1ncc(-c2ccc3ncn(CCCC(=O)N4CCCC4)c(=O)c3c2)cc1NS(=O)(=O)c1ccc(F)cc1Cl
[R] CNC[C@@H](C)Cn1cnc2ccc(-c3cnc(OC)c(NS(=O)(=O)c4ccc(F)cc4Cl)c3)cc2c1=O [R008, reference compound]
Could you please sort these 3 entries by pIC50 from high to low? // format: requested-order list of labels
R, Q, P
(R: 6.92, Q: 6.61, P: 6.38)

###

# collection of IC50 values tested on PI3Kβ (Homo sapiens)
Quantity kind: IC50 (nM)

{"columns": ["Compound", "Unit name", "Val"],
 "data": [
  ["CCOC(=O)CCCn1cnc2ccc(-c3cnc(OC)c(NS(=O)(=O)c4ccc(F)cc4Cl)c3)cc2c1=O [R001, reference compound]", "nM", 100]
]}

[a] CNC(=O)C(C)Cn1cnc2ccc(-c3cnc(C(F)(F)F)c(NS(=O)(=O)c4ccc(F)cc4Cl)c3)cc2c1=O (stereo not drawn)
[b] CNC(=O)C(C)Cn1cnc2ccc(-c3cnc(OC)c(NS(=O)(=O)c4cc(Cl)ccc4C)c3)cc2c1=O (single isomer, unassigned) [WX221]
I'm curious, which of these has a smaller IC50 number: a or b ? Give the label under which the chosen entry appears.
a
(a: 110 nM, b: 162 nM)

###

- Target or system: PI3Kδ (Homo sapiens)
- Sequence (O00329 whole entry, one chain of several): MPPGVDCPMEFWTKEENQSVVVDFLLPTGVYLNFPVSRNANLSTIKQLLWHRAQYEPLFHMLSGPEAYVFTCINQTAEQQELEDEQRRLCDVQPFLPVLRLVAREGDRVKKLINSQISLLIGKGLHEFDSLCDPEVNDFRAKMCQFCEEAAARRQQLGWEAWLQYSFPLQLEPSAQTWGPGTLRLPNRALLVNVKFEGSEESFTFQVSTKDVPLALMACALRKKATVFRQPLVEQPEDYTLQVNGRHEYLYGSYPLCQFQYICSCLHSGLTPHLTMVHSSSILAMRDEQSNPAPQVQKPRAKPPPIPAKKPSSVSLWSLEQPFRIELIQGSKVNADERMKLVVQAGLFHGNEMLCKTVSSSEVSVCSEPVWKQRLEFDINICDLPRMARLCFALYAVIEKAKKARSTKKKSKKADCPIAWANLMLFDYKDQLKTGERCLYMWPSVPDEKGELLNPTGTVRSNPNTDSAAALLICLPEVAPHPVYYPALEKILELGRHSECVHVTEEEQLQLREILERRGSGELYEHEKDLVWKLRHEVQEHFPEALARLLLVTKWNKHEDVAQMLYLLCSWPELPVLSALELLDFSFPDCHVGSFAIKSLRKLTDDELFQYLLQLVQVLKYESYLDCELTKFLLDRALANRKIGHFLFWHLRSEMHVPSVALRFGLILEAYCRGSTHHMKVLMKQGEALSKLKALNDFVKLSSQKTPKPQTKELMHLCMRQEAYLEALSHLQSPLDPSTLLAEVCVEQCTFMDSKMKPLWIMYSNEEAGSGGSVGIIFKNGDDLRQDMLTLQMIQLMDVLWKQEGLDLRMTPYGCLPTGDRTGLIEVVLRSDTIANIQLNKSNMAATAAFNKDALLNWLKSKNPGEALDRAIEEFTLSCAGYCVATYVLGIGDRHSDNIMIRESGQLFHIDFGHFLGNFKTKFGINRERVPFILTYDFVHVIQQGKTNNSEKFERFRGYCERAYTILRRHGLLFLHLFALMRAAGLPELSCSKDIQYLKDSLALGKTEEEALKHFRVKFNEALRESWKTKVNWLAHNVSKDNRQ
- Protocol: In vitro test of enzyme activity (ADP-Glo lipokinase), PI3K delta
- Condition notes: 40 μM ATP, 50 μM PIP2:3PS, 120 min
Quantity kind: IC50 (nM)

Consider the worked cases shown below.
{"columns": ["Compound", "Quantity kind", "Val"],
 "data": [
  ["CNC(=O)C(C)Cn1cnc2ccc(-c3cnc(OC)c(NS(=O)(=O)c4cc(Cl)c(F)cc4F)c3)cc2c1=O (single isomer, unassigned)", "IC50", 29.6],
  ["COc1ncc(-c2ccc3ncn(CC(C)C(=O)O)c(=O)c3c2)cc1NS(=O)(=O)c1ccc(F)cc1Cl (single isomer, unassigned) [R002, reference compound]", "IC50", 122],
  ["CNC(=O)C(C)Cn1cnc2ccc(-c3cnc(CO)c(NS(=O)(=O)c4ccc(F)cc4Cl)c3)cc2c1=O (single isomer, unassigned) [WX063]", "IC50", 336],
  ["CNC(=O)C(C)Cn1cnc2ccc(-c3cnc(OC)c(NS(=O)(=O)c4ccc(F)cc4)c3)cc2c1=O (single isomer, unassigned)", "IC50", 30.7],
  ["CNC(=O)C(C)Cn1cnc2ccc(-c3cnc(OC)c(NS(=O)(=O)c4cc(C)ccc4Cl)c3)cc2c1=O (single isomer, unassigned)", "IC50", 18.8],
  ["COc1ncc(-c2ccc3ncn(CC(C)C(N)=O)c(=O)c3c2)cc1NS(=O)(=O)c1sc(C)nc1C (single isomer, unassigned) [WX025]", "IC50", 0.47],
  ["COc1ncc(-c2ccc3ncn(CC(C)C(=O)NCC(F)(F)F)c(=O)c3c2)cc1NS(=O)(=O)c1ccc(F)cc1Cl (single isomer, unassigned) [WX058]", "IC50", 18.7],
  ["COc1ncc(-c2ccc3ncn(CC(C)C(=O)NCC(F)(F)F)c(=O)c3c2)cc1NS(=O)(=O)c1ccc(F)cc1Cl (single isomer, unassigned) [WX059]", "IC50", 13.2],
  ["COc1ncc(-c2ccc3ncn(CC(C)C(=O)O)c(=O)c3c2)cc1NS(=O)(=O)c1ccc(F)cc1Cl (single isomer, unassigned) [R003, reference compound]", "IC50", 85],
  ["CNC(=O)C1(Cn2cnc3ccc(-c4cnc(OC)c(NS(=O)(=O)c5ccc(F)cc5Cl)c4)cc3c2=O)CC1", "IC50", 4.36]
]}

[I] COc1ncc(-c2ccc3ncn(CCC(N)=O)c(=O)c3c2)cc1NS(=O)(=O)c1ccc(F)cc1Cl
[II] COc1ncc(-c2ccc3ncn(CC(C)C(N)=O)c(=O)c3c2)cc1NS(=O)(=O)c1sc(C)nc1C (single isomer, unassigned) [WX024]
Sorting by IC50 in descending order, would I or II appear first? Give the label under which the chosen entry appears.
I
(I: 3.88 nM, II: 0.47 nM)

###

# collection of IC50 values tested on PI3Kβ (Homo sapiens)
Quantity kind: IC50 (µM)

[A] COCCNC(=O)C(C)Cn1cnc2ccc(-c3cnc(OC)c(NS(=O)(=O)c4ccc(F)cc4Cl)c3)cc2c1=O (single isomer, unassigned)
[B] CNC(=O)C(C)Cn1cnc2ccc(-c3cnc(OC)c(NS(=O)(=O)c4cc(Cl)ccc4Cl)c3)cc2c1=O (single isomer, unassigned)
I'm curious, which of these has a smaller IC50 number: A or B ? Give the label under which the chosen entry appears.
B
(B: 0.166 µM, A: 0.365 µM)

###

- Protocol: In vivo DMPK study in mice after a single administration
- Set-up: species or system female Balb/c mice
- Condition notes: female, Balb/c, mouse, plasma, intravenous 1 mg/kg, read-out: Intravenous injection T1/2 (converted)
Quantity kind: half-life (min)
Enter your answer as a number in min; do not include the unit.

Please report the measured half-life for CNC(=O)CCCn1cnc2ccc(-c3cnc(OC)c(NS(=O)(=O)c4ccc(F)cc4Cl)c3)cc2c1=O
53.4

###

- Target or system: PI3Kβ (Homo sapiens)
- Construct: purchased Promega V1751
- Protocol: In vitro test of enzyme activity (ADP-Glo lipokinase), PI3K beta
- Assay type: biochemical
- Condition notes: 40 μM ATP, 50 μM PIP2:3PS, 120 min
Quantity kind: IC50 (µM)

Consider the worked cases shown below.
{"columns": ["Molecule", "Quantity kind", "Val"],
 "data": [
  ["CNC(=O)C(C)Cn1cnc2ccc(-c3cnc(C)c(NS(=O)(=O)c4sc(C)nc4C)c3)cc2c1=O (single isomer, unassigned) [WX034]", "IC50", 0.554],
  ["CNC(=O)C(C)Cn1cnc2ccc(-c3cnc(OC)c(NS(=O)(=O)c4ccc(OC)cc4)c3)cc2c1=O (single isomer, unassigned)", "IC50", 0.527]
]}

[a] CNC(=O)C(C)Cn1cnc2ccc(-c3cnc(C)c(NS(=O)(=O)c4sc(C)nc4C)c3)cc2c1=O (single isomer, unassigned) [WX035]
[b] CNC(=O)C(C)Cn1cnc2ccc(-c3cnc(OC)c(NS(=O)(=O)c4cccc(C)c4F)c3)cc2c1=O (single isomer, unassigned) [WX219]
Sorting by IC50 in descending order, would a or b appear first? Give the label under which the chosen entry appears.
b

###

- Protocol: In vivo DMPK study in mice after a single administration
- Parameters: species or system female Balb/c mice
- Condition notes: female, Balb/c, mouse, plasma, intravenous 1 mg/kg, read-out: Cl (clearance rate)
Quantity kind: clearance (mL/min/kg)
Enter your answer as a number in mL/min/kg; do not include the unit.

Please report the measured clearance for CNC(=O)CCCn1cnc2ccc(-c3cnc(OC)c(NS(=O)(=O)c4ccc(F)cc4Cl)c3)cc2c1=O [WX198]
4.16

###

- Protocol: In vivo DMPK study in mice after a single administration
- Design: species or system female Balb/c mice
- Condition notes: oral, 10 mpk
Quantity kind: Oral DNAUC (area under the dose normalization curve) (nM · h/mpk)

[A] CNC(=O)C(C)Cn1cnc2ccc(-c3cnc(OC)c(NS(=O)(=O)c4cc(C(F)(F)F)cc(C(F)(F)F)c4)c3)cc2c1=O (single isomer, unassigned)
[B] CNC(=O)C(C)Cn1cnc2ccc(-c3cnc(OC)c(NS(=O)(=O)c4cc(Cl)ccc4Cl)c3)cc2c1=O (single isomer, unassigned)
[C] CNC(=O)C(C)Cn1cnc2ccc(-c3cnc(OC)c(NS(=O)(=O)c4cc(C)ccc4Cl)c3)cc2c1=O (single isomer, unassigned)
Ranking by Oral DNAUC (area under the dose normalization curve) (descending) is requested for the entries above. // format: requested-order list of labels
A, B, C
(A: 12262 nM · h/mpk, B: 4867 nM · h/mpk, C: 734 nM · h/mpk)

[I] CNC(=O)C(C)Cn1cnc2ccc(-c3cnc(OC)c(NS(=O)(=O)c4ccc(F)cc4C)c3)cc2c1=O (single isomer, unassigned)
[II] CNC(=O)C(C)Cn1cnc2ccc(-c3cnc(OC)c(NS(=O)(=O)c4cc(Cl)ccc4C)c3)cc2c1=O (single isomer, unassigned)
Sorting by Oral DNAUC (area under the dose normalization curve) in descending order, would I or II appear first? Give the label under which the chosen entry appears.
II
